Where these numbers come from: patent US20120077731A1

Biological target: T1, Human soluble IL-6R (human, UniProt P08887 20-358)
T1 construct: Soluble recombinant form; biotinylated in some assays; also called hIL-6R; human IL-6R
T1 sequence (looked up): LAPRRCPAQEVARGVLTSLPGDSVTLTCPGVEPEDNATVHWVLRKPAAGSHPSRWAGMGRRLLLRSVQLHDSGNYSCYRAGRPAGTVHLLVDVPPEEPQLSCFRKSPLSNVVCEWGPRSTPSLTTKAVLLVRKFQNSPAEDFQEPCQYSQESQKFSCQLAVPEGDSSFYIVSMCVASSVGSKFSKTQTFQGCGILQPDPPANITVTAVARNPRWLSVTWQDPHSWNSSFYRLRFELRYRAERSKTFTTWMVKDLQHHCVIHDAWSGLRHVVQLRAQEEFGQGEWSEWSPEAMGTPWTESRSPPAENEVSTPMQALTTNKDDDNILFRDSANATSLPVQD
Test: SPR Biacore 3000, IL-6R amine-coupled to CM5
measured property: pKd
The meaning of pKd here: minus log10 of the concentration in molar units.

Need pKd, item IL6R01 (VHH, also called PMP28E11; not shown: C-terminal c-myc and (His)6 tags) VHH: EVQLVESGGGLVQPGGSLRLSCAASGFPLDYYAIGWFRQAPGKEREGVSCISSSDGSTYYADSVKGRFTISRDNAKNTVYLQMNSLKPEDTAVYYCALVHTTAQATGVPQREYEYEWWGQGTQVTVSS
9.40

Need pKd, item IL6R14 (VHH, also called PMP40H5; not shown: C-terminal c-myc and (His)6 tags) VHH: EVQLVESGGGLVQPGGSLRLSCAASGFSLDYYAIGWFRQAPGKEREGVSCMDSSSGTTSTYYSDSVKGRFTISRDDAKNTVYLQMNSLKPEDTAVYYCAADGHLNWGQRYVPCSQISWRGWNDYWGQGTQVTVSS
9.52

Need pKd, item IL6R08 (VHH, also called PMP34A12; not shown: C-terminal c-myc and (His)6 tags) VHH: EVQLVESGGGLVQPGGSLRLSCVASGFSLDYYVIGWFRQAPGKEREGVSCISSSDGSTYYADSVKGRFTISRDNAKNTVYLQMNSLKPEDTAVYYCAADLLRTPEFCVDSAPYDYWGQGTQVTVSS
7.99

Need pKd, item IL6R03 (VHH, also called PMP31A4; not shown: C-terminal c-myc and (His)6 tags) VHH: EVQLVESGGGLVQAGGSLRLSCAASGSIFKVNAMGWYRQAPGKQRELVAGIISGGSTNYADSVKGRLTISRDNAKNTVYLQMNSLKPEDTAVYYCSFVTTNSDYDLGRDYWGQGTQVTVSS
8.52

Need pKd, item IL6R12 (VHH, also called PMP35F4; not shown: C-terminal c-myc and (His)6 tags) VHH: EVQLVESGGGLVQAGGSLRLSCAASGRTFSSYDMGWYRQAPGKEREFVAIITWNSSTYYADSVKGRFTISRDNAKNTVYLQMNSLKPEDTAIYYCNAQYGLGYAEDYWGQGTQVTVSS
8.77
